System: A549 NSCLC
Test: NCI tumour cell line growth inhibition, 48 h
observed-property: TGI (µM)
Answers are plain numbers, in µM.

Worked examples follow.
> print(dat)
                                   molecule  recorded.result
1  O=C(c1ccccc1)c1c(C(F)(F)F)n([O-])c2ccc(C(F)(F)F)cc2[n+]1=O            0.278
2  Cc1nc2ccccc2c(/C=C/c2ccc(Cl)cc2)c1C(=O)/C=C/c1ccccc1             6.54
3       COc1ccc2ccc3oc([N+](=O)[O-])cc3c2c1            0.543

From here, focus on the item given below.
stdin: Suppose we examine the molecule C=CC(COC(c1ccccc1)(c1ccccc1)c1ccccc1)N(CC)CC (stereo not given) ; what TGI value has been reported?
stdout: 18.4

====

Tested on: OVCAR-8 ovarian
Assay: NCI tumour cell line growth inhibition, 48 h
Assign TGI to each entry below.

Hey, can you go through the list below and give me TGI for every item?
1. COc1cc(NC(=O)C2=C(N3CCOCC3)/C(=C/c3ccc(Cl)cc3)CC2)cc(OC)c1OC
2. CCN(CC)CCNC(=O)c1cccc2nc3ccccc3nc12
3. CC1(C)CC(N(C(=O)/C=C/c2ccc([N+](=O)[O-])o2)C2CCCCC2)CC(C)(C)N1
4. C[C@]12CCC(=O)C=C1CC[C@@H]1C2CC[C@]2(C)c3nn(-c4ccccc4)nc3CC12 (some centres not stated)
5. O=c1oc2ccccc2c(O)c1C(C/C(CCN1CCCC1)=N\Nc1ccccc1)c1ccccc1 (configuration not stated)

stdout:
1. > 100 µM
2. > 100 µM
3. 17.8 µM
4. > 100 µM
5. > 100 µM

Hey, can you go through the list below and give me TGI for every item?
1. O=[N+]([O-])c1ccc(C=NC23CC4CC(CC(C4)C2)C3)cc1
2. N#CC1C=Cc2c(ccc3ccccc23)N1C(=O)c1ccccc1 (configuration not stated)
3. CCCCCCCCCCCCCCCC1=NC(C)(C)CN1C(C)C

stdout:
["> 100 µM", "> 100 µM", "3.58 µM"]

Hey, can you go through the list below and give me TGI for every item?
1. CCCCCCCCCCCCCC(=O)N(CCCCCCCCC)CC(O)C(O)C(OC1OC(CO)C(O)C(O)C1O)C(O)CO (configuration not stated)
2. C=C1C(=O)OC2CC3(C)OC3CC/C(C)=C/C(OC(C)=O)C12 (configuration not stated)
3. CC(=O)/C(=C/N1CCNC1=S)C(=O)Nc1ccccc1C

stdout:
1. 39.3 µM
2. 13.6 µM
3. > 100 µM

stdin: Suppose we examine the molecule Cn1c(=O)c2/c(n(C)c1=O)=N\C=c1\c(=O)n(C)c(=O)n(C)\c1=N\C=2 ; what TGI value has been reported?
stdout: > 100 µM

====

Assign TGI to each entry below.
Test system: RXF 393 renal
Assay: NCI tumour cell line growth inhibition, 48 h

Worked examples follow.
> print(dat)
                                   compound  recorded.result
1  CC(=O)OC1COC(Nc2nc(N)n(C)c(=O)c2N=O)C(OC(C)=O)C1OC(C)=O (stereo not given)          > 10 µM
2      Cn1c(O)c(C=Nc2ccccc2Cl)c(=O)n(C)c1=O          45.4 µM
3              Cc1c(C(=O)O)n2cnnc2c2ccccc12         > 100 µM

Hey, can you go through the list below and give me TGI for every item?
1. CC(=O)N/C(=C\c1ccc(Cc2nc3c([nH]2)C(=O)c2ccccc2C3=O)cc1)c1nc2c([nH]1)C(=O)c1ccccc1C2=O
2. Cc1c([N+](=O)[O-])oc2ccc3ccccc3c12
3. CC(=O)Nc1ccccc1NC1CC(C)N(c2ccccc2)N1C(C)=O (stereo not given)
4. OCCN1CCN(CC/C=C2/c3ccccc3Sc3ccc(Cl)cc32)CC1
5. CN(C)CCCn1c(-c2nonc2N)nc2cnccc21

stdout:
["> 100 µM", "> 100 µM", "> 10 µM", "26.5 µM", "> 25 µM"]

Hey, can you go through the list below and give me TGI for every item?
1. CCN1CCC(O)(/C=C/c2ccc(C(C)C)cc2)C(C(=O)/C=C/c2ccc(C(C)C)cc2)C1 (stereo not given)
2. CC1=NN(c2nc(N)nc(/C=C\c3ccc([N+](=O)[O-])s3)n2)C(C)(C)C1

stdout:
6.59 µM
> 100 µM
